Target: Cytochrome P450 2C9 (Homo sapiens) (UniProt P11712)
Sequence (P11712 whole entry, looked up): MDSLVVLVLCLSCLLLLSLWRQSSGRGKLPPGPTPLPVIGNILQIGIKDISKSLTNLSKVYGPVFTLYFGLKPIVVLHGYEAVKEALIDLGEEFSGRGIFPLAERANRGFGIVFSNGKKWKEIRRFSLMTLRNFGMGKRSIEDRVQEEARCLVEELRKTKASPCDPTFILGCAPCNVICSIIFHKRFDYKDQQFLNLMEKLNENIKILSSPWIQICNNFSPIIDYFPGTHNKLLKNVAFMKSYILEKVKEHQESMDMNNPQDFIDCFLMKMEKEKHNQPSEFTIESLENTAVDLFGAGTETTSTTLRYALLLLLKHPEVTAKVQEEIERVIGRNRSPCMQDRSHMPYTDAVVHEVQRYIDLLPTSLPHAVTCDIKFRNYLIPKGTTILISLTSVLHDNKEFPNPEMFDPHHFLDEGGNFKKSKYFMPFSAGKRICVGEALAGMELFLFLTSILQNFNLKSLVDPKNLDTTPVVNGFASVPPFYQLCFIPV
Assay: Cytochrome P450 family 2 subfamily C member 9 (CYP2C9) small molecule antagonists: luciferase biochemical (cell-free) qHTS assay (AID 1645842); further: nearly all actives have a fitted effect of over 55% in size
Conditions: P450-Glo CYP2C9 enzyme assay, luciferin luminescence; series mostly up to 57.4 µM
Records with an inconclusive call do not appear. The source made the active and inactive calls. The call rests on the fitted dose curve; in most records, active means well fitted inhibition curve with a large enough effect in the repeat runs; inconclusive means weak or mixed curves; inactive means no such curve, though single readings can be large or run the other way.
The categories you may choose from are TRUE for active, FALSE for inactive

Solved cases (3 shown):
Per the records of this test, what outcome belongs to Cc1cccc2nc(-c3ccccn3)c(Nc3ccc(F)cc3)n12 ?
TRUE

Per the records of this test, what outcome belongs to O=c1cc2nc(-c3cccs3)nc(SCCOc3ccc(Cl)cc3)n2[nH]1 ?
TRUE

Per the records of this test, what outcome belongs to COc1ccc(OCC(=O)Nc2cc(-c3nc4ccccc4s3)ccc2C)cc1 ?
TRUE

---
Per the records of this test, what outcome belongs to NC(=O)C[C@H](N)C(=O)O ?
FALSE

Per the records of this test, what outcome belongs to Cc1ccnc(NC(c2cccc(O)c2)c2ccc3ccc(C)nc3c2O)c1 (stereo unspecified) ?
TRUE

Per the records of this test, what outcome belongs to CC1=C(C(=O)Nc2cccc(-c3ccn[nH]3)c2)C(c2ccccc2Cl)N=C(Nc2nc3ccccc3o2)N1 (stereo unspecified) ?
TRUE

Per the records of this test, what outcome belongs to Cc1ccc(C2=CC(c3ccccc3C)n3c(nc4ccccc43)N2)cc1 (stereo unspecified) ?
TRUE

Per the records of this test, what outcome belongs to COc1cccc(Cn2c(SCC(=O)N3CCN(c4ccc(F)cc4)CC3)nc3ccccc32)c1 ?
TRUE

Per the records of this test, what outcome belongs to O=C(Cn1c(=O)n(Cc2ccco2)c(=O)c2oc3ccccc3c21)Nc1ccccc1 ?
TRUE

Per the records of this test, what outcome belongs to COc1ccc(Cn2ccnc2SCC(=O)Nc2nc3ccccc3s2)cc1 ?
TRUE

The values you see were collected from PubChem BioAssay (NCATS).
